- Test system: NCI-H1876 complex spheroid growth, % test/control
- experiment.summary: Anticancer human tumor NCI-H1876 cell line growth inhibition [Asc];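 note: compound exposure lasted 7 days starting three days after seeding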
- condition.parameters: curve of first compound; second compound 0.1 µM
- Text: Multicellular complex tumor spheroid response to apoptosis pathway targeting inhibitors Alrizomadlin, Pelcitoclax, and Dasminapant in combination with a variety of drugs and investigational agents in selected tumor cell lines […] Compounds. […] If the clinical Cmax for an agent had not been determined, the highest concentration tested was 10 microM. […]
pIC50: −log10 of the molar value.
readout.type: pIC50

>  <molecule>
COc1c(OCCCN2CCOCC2)ccc2c3n(c(=NC(=O)c4cnc(N)nc4)nc12)CCN3 + Cc1c(S(C)(=O)=O)c(-c2cc(F)cc(N3CCN(c4ccc(NS(=O)(=O)c5ccc(NC(CCN6CCC(C(=O)OCCCP(=O)(O)O)CC6)CSc6ccccc6)c(S(=O)(=O)C(F)(F)F)c5)cc4)CC3)c2)c(-c2ccc(Cl)cc2)n1C(C)C

>  <pIC50>
6.65

$$$$
>  <molecule>
C#Cc1c(F)ccc2cc(O)cc(-c3ncc4c(N5CC6CCC(C5)N6)nc(OCC56CCCN5CC(F)C6)nc4c3F)c12 (configuration not stated) + CNC(C)C(=O)NC1CN(S(=O)(=O)c2cccc(S(=O)(=O)N3CCC4CCC(C(=O)NC(c5ccccc5)c5ccccc5)N4C(=O)C(NC(=O)C(C)NC)C3)c2)CCC2CCC(C(=O)NC(c3ccccc3)c3ccccc3)N2C1=O

>  <pIC50>
< 5.00

$$$$
>  <molecule>
Cc1nc(N2CCC3(CC2)COC(C)C3N)c(CO)nc1Sc1ccnc(N)c1Cl (configuration not stated) + Cc1c(S(C)(=O)=O)c(-c2cc(F)cc(N3CCN(c4ccc(NS(=O)(=O)c5ccc(NC(CCN6CCC(C(=O)OCCCP(=O)(O)O)CC6)CSc6ccccc6)c(S(=O)(=O)C(F)(F)F)c5)cc4)CC3)c2)c(-c2ccc(Cl)cc2)n1C(C)C

>  <pIC50>
< 5.52

$$$$
>  <molecule>
O=C(c1ccc(F)c(F)c1Nc1ccc(I)cc1F)N1CC(O)([C@@H]2CCCCN2)C1 + CNC(C)C(=O)NC1CN(S(=O)(=O)c2cccc(S(=O)(=O)N3CCC4CCC(C(=O)NC(c5ccccc5)c5ccccc5)N4C(=O)C(NC(=O)C(C)NC)C3)c2)CCC2CCC(C(=O)NC(c3ccccc3)c3ccccc3)N2C1=O

>  <pIC50>
< 6.00

$$$$
>  <molecule>
NC1CCC(NC2CC2c2ccccc2)CC1 (configuration not stated) + CNC(C)C(=O)NC1CN(S(=O)(=O)c2cccc(S(=O)(=O)N3CCC4CCC(C(=O)NC(c5ccccc5)c5ccccc5)N4C(=O)C(NC(=O)C(C)NC)C3)c2)CCC2CCC(C(=O)NC(c3ccccc3)c3ccccc3)N2C1=O

>  <pIC50>
< 7.00

$$$$

Provide reported pIC50 for each item, in the same order as listed.
1. CCN1CCN(Cc2ccc(Nc3ncc(F)c(-c4cc(F)c5nc(C)n(C(C)C)c5c4)n3)nc2)CC1 + Cc1c(S(C)(=O)=O)c(-c2cc(F)cc(N3CCN(c4ccc(NS(=O)(=O)c5ccc(NC(CCN6CCC(C(=O)OCCCP(=O)(O)O)CC6)CSc6ccccc6)c(S(=O)(=O)C(F)(F)F)c5)cc4)CC3)c2)c(-c2ccc(Cl)cc2)n1C(C)C
2. C=C(F)C(=O)N1CCN(c2nc(OCC3CCCN3C)nc3c2CCN(c2cccc4cccc(Cl)c24)C3)CC1CC#N (configuration not stated) + CNC(C)C(=O)NC1CN(S(=O)(=O)c2cccc(S(=O)(=O)N3CCC4CCC(C(=O)NC(c5ccccc5)c5ccccc5)N4C(=O)C(NC(=O)C(C)NC)C3)c2)CCC2CCC(C(=O)NC(c3ccccc3)c3ccccc3)N2C1=O

result:
1: < 6.00; 2: 5.25

Reference source: PubChem BioAssay AID1963441
